Listing of entries alongside the reported melting point.

Ask: Give the measured melting point of CC[C@@H](c1ccccc1)N(Cc1ccc(C(=O)O)cc1F)S(=O)(=O)c1ccc(Cl)cc1 .
Result: 118 to 120 °C

Ask: Give the measured melting point of O=C(O)c1ccc(CN([C@H](CO)c2ccccc2)S(=O)(=O)c2ccc(Cl)cc2)cc1 (hydrate or solvate) .
Result: 86 to 88 °C

Ask: Give the measured melting point of CC[C@@H](c1ccccc1)N(Cc1ccc(C(=O)OC)cc1)S(=O)(=O)c1ccc(F)cc1 .
Result: 107 to 109 °C

Ask: Give the measured melting point of C[C@H](O)[C@H](CO)N(Cc1ccc(C#N)cc1)S(=O)(=O)c1ccc(Cl)cc1 .
Result: 124 to 126 °C
